Reported values of GI50 for individual entries
Test system: SF-268
Counter-ions that a name gives are not always drawn.
measured_attribute: GI50 (nM)

molecule	endpoint_value
Cl.Nc1nc2ccccc2c2[nH]c3ccccc3c12 [Compound 7e, hydrochloride]	1970
c1ccc2c(c1)nc(NCCN1CCNCC1)c1c3ccccc3[nH]c21 [Compound 5]	500
CN(CCCN)CCCNc1nc2ccccc2c2[nH]c3ccccc3c12 [Compound 10, hydrochloride]	250
Cl.OCCNc1nc2ccccc2c2[nH]c3ccccc3c12 [Compound 7d, hydrochloride]	560

* * *

Where a name gives a salt, the structure may show the parent alone.
Consider molecules characterized by their GI50 with SF-268.
measured_attribute: GI50

molecule	measured_attribute	endpoint_value
Oc1ccc(CCNc2nc3ccccc3c3[nH]c4ccccc4c23)cc1 [Compound 7a, hydrochloride]	GI50	1710 nM
Cl.c1ccc2c(c1)nc(NCCCNCCCNc1nc3ccccc3c3[nH]c4ccccc4c13)c1c3ccccc3[nH]c21 [Compound 8a, hydrochloride]	GI50	30 nM
CN(CCCNc1nc2ccccc2c2[nH]c3ccccc3c12)CCCNc1nc2ccccc2c2[nH]c3ccccc3c12.Cl [Compound 8b, hydrochloride]	GI50	< 10 nM
Cl.OCCNCCNc1nc2ccccc2c2[nH]c3ccccc3c12 [Compound 9, hydrochloride]	GI50	1360 nM
NCCCN1CCN(CCCNc2nc3ccccc3c3[nH]c4ccccc4c23)CC1 [Compound 6, hydrochloride]	GI50	310 nM

* * *

Tested on: COLO 205
assay: In vitro anticancer assay (NCI panel), COLO 205
Assay type: cell-based
condition_context: Homo sapiens; COLO 205, colon cancer
Text: […]
Counter-ions that a name gives are not always drawn.
# reported GI50; entries follow

compound	test_target	GI50, nM
Oc1ccc(CCNc2nc3ccccc3c3[nH]c4ccccc4c23)cc1 [Compound 7a, hydrochloride]	COLO 205	1180
CN(CCCNc1nc2ccccc2c2[nH]c3ccccc3c12)CCCNc1nc2ccccc2c2[nH]c3ccccc3c12.Cl [Compound 8b, hydrochloride]	COLO 205	20
CN(CCCN)CCCNc1nc2ccccc2c2[nH]c3ccccc3c12 [Compound 10, hydrochloride]	COLO 205	180
Cl.c1ccc2c(c1)nc(NCCCNCCCNc1nc3ccccc3c3[nH]c4ccccc4c13)c1c3ccccc3[nH]c21 [Compound 8a, hydrochloride]	COLO 205	180
Cl.OCCNc1nc2ccccc2c2[nH]c3ccccc3c12 [Compound 7d, hydrochloride]	COLO 205	310

* * *

Structures can show the parent of a compound that is named as a salt.
A set of molecules tested on DU-145, with measured GI50:

molecule	measure_unit	GI50
NCCCN1CCN(CCCNc2nc3ccccc3c3[nH]c4ccccc4c23)CC1 [Compound 6, hydrochloride]	nM	120
c1ccc2c(c1)nc(NCCN1CCNCC1)c1c3ccccc3[nH]c21	nM	160
Cl.c1ccc2c(c1)nc(NCCCNCCCNc1nc3ccccc3c3[nH]c4ccccc4c13)c1c3ccccc3[nH]c21 [Compound 8a, hydrochloride]	nM	130
Cl.OCCNc1nc2ccccc2c2[nH]c3ccccc3c12 [Compound 7d, hydrochloride]	nM	690
CN(CCCN)CCCNc1nc2ccccc2c2[nH]c3ccccc3c12 [Compound 10, hydrochloride]	nM	240
Cl.OCCNCCNc1nc2ccccc2c2[nH]c3ccccc3c12 [Compound 9, hydrochloride]	nM	740
Oc1ccc(CCNc2nc3ccccc3c3[nH]c4ccccc4c23)cc1 [Compound 7a, hydrochloride]	nM	1450
CN(CCCNc1nc2ccccc2c2[nH]c3ccccc3c12)CCCNc1nc2ccccc2c2[nH]c3ccccc3c12.Cl [Compound 8b, hydrochloride]	nM	50
Cl.Nc1nc2ccccc2c2[nH]c3ccccc3c12 [Compound 7e, hydrochloride]	nM	1940

Just for reference, patent US8273760B2 is where these values come from.
